- assayed-target: PARP-1 enzyme (Homo sapiens, UniProt P09874)
- Construct: made in house
- Sequence (P09874 whole entry): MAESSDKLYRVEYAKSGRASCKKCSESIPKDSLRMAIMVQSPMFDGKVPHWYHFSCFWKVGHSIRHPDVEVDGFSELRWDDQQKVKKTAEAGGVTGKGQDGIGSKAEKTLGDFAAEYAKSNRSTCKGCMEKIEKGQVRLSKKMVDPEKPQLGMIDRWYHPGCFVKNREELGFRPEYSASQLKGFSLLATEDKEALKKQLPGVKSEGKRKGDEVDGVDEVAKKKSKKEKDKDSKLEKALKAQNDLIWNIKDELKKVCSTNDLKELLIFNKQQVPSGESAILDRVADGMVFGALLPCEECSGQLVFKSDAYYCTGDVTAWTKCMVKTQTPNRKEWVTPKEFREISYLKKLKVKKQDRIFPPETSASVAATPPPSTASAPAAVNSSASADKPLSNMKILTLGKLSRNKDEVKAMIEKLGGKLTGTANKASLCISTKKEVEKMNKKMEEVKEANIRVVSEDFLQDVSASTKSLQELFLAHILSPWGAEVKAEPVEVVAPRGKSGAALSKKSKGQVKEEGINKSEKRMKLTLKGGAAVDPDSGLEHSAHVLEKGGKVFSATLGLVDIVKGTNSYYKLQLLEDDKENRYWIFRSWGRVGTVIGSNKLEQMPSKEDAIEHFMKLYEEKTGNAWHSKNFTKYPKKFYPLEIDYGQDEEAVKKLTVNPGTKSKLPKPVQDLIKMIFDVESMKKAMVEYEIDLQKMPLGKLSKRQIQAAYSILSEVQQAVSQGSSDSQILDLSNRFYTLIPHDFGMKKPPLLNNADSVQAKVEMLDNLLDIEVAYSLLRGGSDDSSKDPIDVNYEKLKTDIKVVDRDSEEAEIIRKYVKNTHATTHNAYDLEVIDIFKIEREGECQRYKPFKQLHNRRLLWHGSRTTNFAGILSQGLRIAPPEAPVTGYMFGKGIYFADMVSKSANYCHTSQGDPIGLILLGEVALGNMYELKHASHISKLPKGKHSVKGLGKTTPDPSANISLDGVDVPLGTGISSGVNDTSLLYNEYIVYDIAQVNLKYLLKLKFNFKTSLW
- measurement-notes: In vitro Scintillation Proximity Assay (SPA) for PARP-1 inhibitory activity
- Format: biochemical
- experimental-parameters: nicked DNA activated PARP-1, [3H]-NAD+, biotinylated histones; read-out: In vitro SPA pIC50 (converted)
readout-name: IC50 (nM)

P: CCc1cc2cc(/C(=C\CN(C)C)c3ccc(Cl)cc3)ccc2[nH]c1=O
Q: Cc1cc2cc(C(NCCO)c3ccccc3)ccc2[nH]c1=O (stereo not shown)
Req: Of the two listed items, which has the higher IC50? First: P Second: Q Select an item and report its label.
Resp: Q
(Q: 796 nM, P: 428 nM)

###

- assayed-target: PARP-1 enzyme (Homo sapiens, UniProt P09874)
- Construct: made in house
- measurement-notes: In vitro Scintillation Proximity Assay (SPA) for PARP-1 inhibitory activity
- Assay type: biochemical
- experimental-parameters: nicked DNA activated PARP-1, [3H]-NAD+, biotinylated histones; read-out: In vitro SPA pIC50 (converted)
readout-name: IC50 (nM)

>  <compound>
CCc1cc2cc(C(c3ccccc3Cl)N3CCC(NCCOC)CC3)ccc2[nH]c1=O (centres unmarked)

>  <measurement-unit>
nM

>  <measured-number>
211

$$$$
>  <compound>
CCc1cc2cc(C(c3cccc(C(F)(F)F)c3)N3CCC(=O)CC3)ccc2[nH]c1=O (centres unmarked)

>  <measurement-unit>
nM

>  <measured-number>
302

$$$$
>  <compound>
Cc1cc2cc(C(NC=O)c3ccc(Cl)cc3)ccc2[nH]c1=O (centres unmarked)

>  <measurement-unit>
nM

>  <measured-number>
618

$$$$
>  <compound>
Cc1cc2cc(C(NCCCc3cccs3)c3ccccc3)ccc2[nH]c1=O (centres unmarked)

>  <measurement-unit>
nM

>  <measured-number>
1410

$$$$
>  <compound>
CCc1nc2cc(C(c3ccc(Cl)cc3)N3CCCCC3)ccc2[nH]c1=O (centres unmarked)

>  <measurement-unit>
nM

>  <measured-number>
1570

$$$$
>  <compound>
Cc1cc2cc(C(NCCCn3cccc3)c3ccccc3)ccc2[nH]c1=O (centres unmarked)

>  <measurement-unit>
nM

>  <measured-number>
2720

$$$$
>  <compound>
O=CNC(c1cccc(C(F)(F)F)c1)c1ccc2[nH]c(=O)c3ccccc3c2c1 (centres unmarked)

>  <measurement-unit>
nM

>  <measured-number>
31

$$$$
>  <compound>
CCc1nc2cc(C(NCCN3CCC(C(=O)c4ccc(F)cc4)CC3)c3ccccc3)ccc2[nH]c1=O (centres unmarked)

>  <measurement-unit>
nM

>  <measured-number>
678

$$$$
>  <compound>
CCc1cc2cc(C(NCCN3CCC(C(=O)c4ccc(F)cc4)CC3)c3ccc4c(c3)OCCO4)ccc2[nH]c1=O (centres unmarked)

>  <measurement-unit>
nM

>  <measured-number>
92.3

$$$$
>  <compound>
CCc1cc2cc(C(CCN(C)C)c3ccc4c(c3)OCCO4)ccc2[nH]c1=O (centres unmarked)

>  <measurement-unit>
nM

>  <measured-number>
8.43

$$$$

a: CCc1cc2cc(C(c3cccc4ccccc34)N3CCC(NCCOC)CC3)ccc2[nH]c1=O (centres unmarked)
b: COc1cccc(C(NC=O)c2ccc3[nH]c(=O)c(C)cc3c2)c1 (centres unmarked)
c: CCc1nc2cc(C(c3ccccc3)n3ccnc3)ccc2[nH]c1=O (centres unmarked)
d: COC(c1ccccc1)c1ccc2[nH]c(=O)c(C)cc2c1 (centres unmarked)
Req: Arrange the 4 compounds from largest to smallest IC50. Provide the labels, sequenced as the question asks.
Resp: d, c, b, a

###

readout-name: melting point (°C)

Here's what some known entries look like.
>  <compound>
Cc1cc2cc(C(c3ccccc3)c3cncn3C)ccc2[nH]c1=O (stereo not drawn) (hydrate or solvate)

>  <melting point (°C)>
240

$$$$
>  <compound>
COCCNC1CCN(C(c2ccc3c(c2)OCCO3)c2ccc3[nH]c(=O)c4ccccc4c3c2)CC1 (stereo not drawn)

>  <melting point (°C)>
116

$$$$
>  <compound>
CCc1cc2cc(C(=C3CCN(CC(O)COc4ccc(OC)cc4)CC3)c3ccc4c(c3)OCCO4)ccc2[nH]c1=O (stereo not drawn)

>  <melting point (°C)>
219

$$$$
>  <compound>
CCc1cc2cc(C(CCN3CCCCC3)c3ccc4c(c3)OCCO4)ccc2[nH]c1=O (stereo not drawn)

>  <melting point (°C)>
181

$$$$

I: CCc1nc2cc(C(c3ccc(Cl)cc3)n3cncn3)ccc2[nH]c1=O (stereo not drawn)
II: CCc1nc2cc(CC(c3ccc(Cl)cc3)n3ccnc3)ccc2[nH]c1=O (stereo not drawn)
III: CCc1cc2cc(C(c3ccc4c(c3)OCCO4)C3CCN(C/C=C/c4ccccc4)CC3)ccc2[nH]c1=O (stereo not drawn)
Req: Rank the items in ascending order with respect to melting point. Order the labels as requested and list them.
Resp: III, I, II

P: CCc1cc2cc(C(=C3CCNCC3)c3ccc4c(c3)OCCO4)ccc2[nH]c1=O
Q: CCc1cc2cc([C@@H](CCN3CCCCC3)c3ccc4c(c3)OCCO4)ccc2[nH]c1=O (single isomer, unassigned)
Req: Could you please tell me which of these two has the higher melting point: P or Q ? Answer with the label corresponding to your selection.
Resp: P
(P: 249 °C, Q: 159 °C)

###

- assayed-target: PARP-1 enzyme (Homo sapiens)
- Construct: made in house
- measurement-notes: In vitro filtration assay for PARP-1 inhibitory activity
- Assay type: biochemical
- experimental-parameters: nicked DNA activated PARP-1, [32P]-NAD, histones; read-out: In vitro filtration assay pIC50 (converted)
readout-name: IC50 (nM)

>  <compound>
Cc1cc2cc(CCC(NC=O)c3ccccc3)ccc2[nH]c1=O (stereo not shown) [Compound 103]

>  <assayed-target>
PARP-1 enzyme (Homo sapiens)

>  <IC50 (nM)>
7730

$$$$
>  <compound>
Cc1cc2cc(C(c3ccccc3)n3cncn3)ccc2[nH]c1=O (stereo not shown) [Compound 5]

>  <assayed-target>
PARP-1 enzyme (Homo sapiens)

>  <IC50 (nM)>
9440

$$$$

P: CCc1nc2cc(C(c3ccc(Cl)cc3)n3ccnc3)ccc2[nH]c1=O (stereo not shown) [Compound 126]
Q: CCc1nc2cc(CC(=O)c3ccc(Cl)cc3)ccc2[nH]c1=O [Compound 113]
R: CCc1cc2cc(C(c3cccc(C(F)(F)F)c3)N3CCC(=O)CC3)ccc2[nH]c1=O (stereo not shown) [Compound 37]
S: CCc1cc2cc(/C(=C/CN(C)C)c3ccccc3)ccc2[nH]c1=O [Compound 139]
T: CCc1cc2cc(C(NC=O)c3ccccc3)ccc2[nH]c1=O (stereo not shown) [Compound 96]
Req: Which order do these items take when sorted by rising IC50? List them. Order the labels as requested and give them as your answer.
Resp: T, R, P, S, Q
(T: 352 nM, R: 1170 nM, P: 2250 nM, S: 4120 nM, Q: 5930 nM)

###

- assayed-target: PARP-1 enzyme (Homo sapiens, UniProt P09874)
- Construct: made in house
- measurement-notes: In vitro Scintillation Proximity Assay (SPA) for PARP-1 inhibitory activity
- Format: biochemical
- experimental-parameters: nicked DNA activated PARP-1, [3H]-NAD+, biotinylated histones; read-out: In vitro SPA pIC50 (converted)
readout-name: IC50 (nM)

Field: example entries. Status: answers known.
>  <molecule>
CCc1nc2cc(C(NCCCN(C)Cc3ccccc3)c3ccccc3)ccc2[nH]c1=O (stereo not drawn)

>  <measurement-unit>
nM

>  <measured-number>
511

$$$$
>  <molecule>
CCc1nc2ccc(CC(c3ccc(Cl)cc3)N3CCC(C(N)=O)CC3)cc2[nH]c1=O (stereo not drawn)

>  <measurement-unit>
nM

>  <measured-number>
553

$$$$
>  <molecule>
CCc1cc2cc(C(c3ccc(Cl)cc3)N3CCC(=O)CC3)ccc2[nH]c1=O (stereo not drawn)

>  <measurement-unit>
nM

>  <measured-number>
316

$$$$

a: O=c1[nH]c2ccc(C(NCCCN3CCCCC3)c3cccc(C(F)(F)F)c3)cc2c2ccccc12 (stereo not drawn)
b: Cc1cc2cc(C(c3ccccc3)N(C)C)ccc2[nH]c1=O (stereo not drawn)
c: CCc1nc2cc(CC(O)c3ccccc3)ccc2[nH]c1=O (stereo not drawn)
Req: Arrange the 3 molecules by rising IC50, starting with the smallest. Present the labels in the sequence the task asks for.
Resp: a, c, b
(a: 74.6 nM, c: 406 nM, b: 957 nM)

###

- assayed-target: PARP-1 enzyme (Homo sapiens, UniProt P09874)
- Construct: made in house
- measurement-notes: In vitro filtration assay for PARP-1 inhibitory activity
- Assay type: biochemical
- experimental-parameters: nicked DNA activated PARP-1, [32P]-NAD, histones; read-out: In vitro filtration assay pIC50 (converted)
readout-name: IC50 (µM)

>  <molecule>
CCc1cc2cc(C(NCCCN3CCCCC3)c3ccccc3)ccc2[nH]c1=O (stereo not shown)

>  <measured-number>
0.918

$$$$
>  <molecule>
CCc1nc2cc(C(c3ccccc3)n3ccnc3)ccc2[nH]c1=O (stereo not shown)

>  <measured-number>
3.66

$$$$
>  <molecule>
Cc1cc2cc(C(c3ccccc3)N(C)C)ccc2[nH]c1=O (stereo not shown)

>  <measured-number>
3.94

$$$$
>  <molecule>
CCc1cc2cc(C(c3ccc(Cl)cc3)N3CCC(=O)CC3)ccc2[nH]c1=O (stereo not shown)

>  <measured-number>
2.65

$$$$
>  <molecule>
Cc1cc2cc(C(c3ccccc3)c3cncn3C)ccc2[nH]c1=O (stereo not shown)

>  <measured-number>
2.39

$$$$
>  <molecule>
COC(c1ccccc1)c1ccc2[nH]c(=O)c(C)cc2c1 (stereo not shown)

>  <measured-number>
9.4

$$$$

a: Cc1cc2cc(C(NCCCn3cccc3)c3ccccc3)ccc2[nH]c1=O (stereo not shown)
b: Cc1cc2cc(C(O)c3ccc4c(c3)OCO4)ccc2[nH]c1=O (stereo not shown)
c: CCc1nc2cc(C(c3ccccc3)n3cncn3)ccc2[nH]c1=O (stereo not shown)
d: CCc1cc2cc(C(CCN(C)C)c3cccc(C(F)(F)F)c3)ccc2[nH]c1=O (stereo not shown)
Req: Arrange by IC50, high to low. The labels, placed in the requested order, form the answer.
Resp: a, b, c, d
